Tested on: ATP;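 further: ATP exposure 15 min at 22 °C before imaging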
Measurement description: switch fluorescence ratio, 500 uM ATP over buffer (Cy3 cluster intensity, sum of 5 cycles each) (fold (ratio)); higher = stronger signal-on switching upon ATP binding; sequences stand for … in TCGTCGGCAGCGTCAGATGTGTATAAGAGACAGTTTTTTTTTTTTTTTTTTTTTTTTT…TC
Condition details: aptamer strand: ATP DNA aptamer (quencher-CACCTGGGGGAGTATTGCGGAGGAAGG + anchor), 100 nM annealed; ATP concentration: 500 uM
Readings of switch fluorescence ratio for the listed sequences
Enter the number alone.

Consider the reported switch fluorescence ratio for these sequences:
Primary sequence	Measurement target	switch fluorescence ratio
AAAATCGGGT	ATP	1.03
ACTCGCGGGC	ATP	1.98
CCTTGCACG	ATP	1.18
TGCGGAGGGC	ATP	1.01

switch fluorescence ratio lookup needed for `TGTATATAGC` , thanks.
1

Next up: `CAGTTAGAAA`
0.995

Another sequence: `AATTGTTTGT`
0.998

Field entry: `TGGTTATGGG`
0.985

Another sequence to look at: `TACTTAGCGA`
1.18

Repeat for the following sequence: `AGGAGGGCAG`
1.01

Same for `CTGTGACCGT`
1.02

And then `GTTTTAGATA` , what is it?
0.993

Input `CTTCATCTTT`
0.996

Entry `TGGCTGTACA` please
1.01

Queued: `ACCTTAAAGA`
0.991

====

Tested on: ATP;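 further: ATP exposure 15 min at 22 °C before imaging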
Measurement description: switch fluorescence ratio, 500 uM ATP over buffer (Cy3 cluster intensity, sum of 5 cycles each) (fold (ratio)); higher = stronger signal-on switching upon ATP binding; sequences stand for … in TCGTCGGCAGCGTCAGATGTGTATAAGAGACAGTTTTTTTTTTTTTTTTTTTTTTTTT…TC
Condition details: aptamer strand: ATP DNA aptamer (quencher-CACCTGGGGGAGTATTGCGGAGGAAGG + anchor), 100 nM annealed; ATP concentration: 500 uM
Reported property: switch fluorescence ratio
Format: numeric value only, no unit, no commentary.

Example results:
Primary sequence	Measurement target	switch fluorescence ratio
CTAATACTTG	ATP	0.979
GACATAGACC	ATP	1.05
TAGGATAGGG	ATP	0.997

What value of switch fluorescence ratio has been reported for the following sequence? `CACTCTGCTG`
1.19

Would you kindly repeat that for `ATAGGGGAAT` ?
0.987

Same question, `TTTAGATCAG` this time
1.03

====

Catalogue of switch fluorescence ratio values
Test system: ATP;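 further: ATP exposure 15 min at 22 °C before imaging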
Measurement description: switch fluorescence ratio, 500 uM ATP over buffer (Cy3 cluster intensity, sum of 5 cycles each) (fold (ratio)); higher = stronger signal-on switching upon ATP binding; sequences stand for … in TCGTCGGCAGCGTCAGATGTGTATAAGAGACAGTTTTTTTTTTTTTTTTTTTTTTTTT…TC
Condition details: aptamer strand: ATP DNA aptamer (quencher-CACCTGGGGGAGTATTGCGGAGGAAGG + anchor), 100 nM annealed; ATP concentration: 500 uM
API doc: respond with a numeric literal and nothing else, no unit.

Primary sequence	switch fluorescence ratio
TGGTAGGGAA	0.982
TTTCGAGTTT	0.983
TCGGCCGTCC	1.06
GGGTATAGGT	0.999
GTTTGATGTC	1

Name the reported switch fluorescence ratio value associated with the sequence `ATTAACCAGG`
1.27

Further, for `GGGGGAGGAT` ?
1.03

Also `TTGAAATAAT` , if possible.
1.1

And what about the sequence `TTTATGCTCC` ?
1.09

Same thing, different sequence: `TTATAAAAAC`
0.982

# repeat for `TTAAGGAGCA`
1.05

Now try `CCATCATTCA` .
1
